Test system: MS2 coat protein
Experiment: apparent Kd, MS2 coat protein; higher = weaker binding; RNA-MaP array; FMN 200 µM where present
Conditions: designed as: OFF switch for flavin mononucleotide; no ligand
Property Name: apparent Kd (µM)
The response must be a number in µM with no trailing unit.

Tested on MS2 coat protein: `UGUCGGAGCAGAGGAUAUUACAUGAGGAUCACCCAUGUAUGAACCAAUAGCUGGAAACAGAAAUGUAAGAAGGCUGCUCCGACA` . Observed apparent Kd: 0.00584

Item `GUAUCGUGAGGAUAUCAUGAUUGACUUUUAUUUUGUCAGCGUGAGAAGGCACAUGAGGAUCACCCAUGUGAUUA` was tested on MS2 coat protein; the reported apparent Kd is 0.0226

Recorded apparent Kd for `AAAGUUGGUAGGCCCUCGGCACAUGAGGAUCACCCAUGUAAGGAGGAUAUGCCCGGUACCCGCUGGCAGAAGGCCUUAUAAGAA` on MS2 coat protein was 0.0122

* * *

Test system: MS2 coat protein
Assay: apparent Kd, MS2 coat protein; higher = weaker binding; RNA-MaP array; FMN 200 µM where present
Details: ligand present: flavin mononucleotide; designed as: OFF switch for flavin mononucleotide
Property Name: apparent Kd (nM)
Numbers only; they are read as nM.

Check out these entries, answers already filled in.
# Polymer Sequence, Property Name, Experimental Value
measured = [
    ("GCGUCUCCUGUCAGGAUAUGCACCGGCUCGCCGGCGUAGAAGGGACAUGAGGAUCACCCAUGUGGUCUACACUU", "apparent Kd", 339),
    ("UUUACGUGAGGAUAUGCGAAUAGAACGUAAGACAUACAGACGCAGAAGGCACAUGAGGAUCACCCAUGUGAACC", "apparent Kd", 41.4),
    ("GUCAGCAAAUAAGGAUAUACAACACUGCUUCGGCAGUGUAUUAAGAUCACAUGAGGAUCACCCAUGUAGAAGGUAUAAGCUGAU", "apparent Kd", 24.5),
]

Please turn your attention to the following entry.
Measured apparent Kd of `AACUUACAUGAGGAUCACCCAUGUGAGGAUAUAUAAAUAUAUAUGUUAUUGUAUGUUUGUAGAAGGCGCGUGAU` : 51.2

* * *

Some sequences, each annotated with its measured apparent Kd.
Test system: MS2 coat protein
Experiment: apparent Kd, MS2 coat protein; higher = weaker binding; RNA-MaP array; FMN 200 µM where present
Conditions: designed as: ON switch for flavin mononucleotide; no ligand
Write the figure, then the unit, nothing else.

# example entries with known answers
# Polymer Sequence, Property Name, Experimental Value
records = [
    ("GAUGACAUGAGGAUCACCCAUGUGAUGGUUUGAGGUGGUUACAGAAGGGACGUAUAGUGGUGUGGUCAGGAUAUGUAGAAUCUU", "apparent Kd", "157 nM"),
    ("GUAGCAUAAUCAGGAUAUUCAGCGAAUAGAUUGACAUGAGGAUCACCCAUGUGGCGAAAGCCUCGGGAGAAGGGAUAAUGCUAC", "apparent Kd", "399 nM"),
    ("GAACGUGACAUGAGGAUCACCCAUGUUGCCUGAGCCAGGUCGUAGGAUAUCCUGUUGAUUAAUUUGGAGAAGGGCGACUGGGAG", "apparent Kd", "46.5 nM"),
    ("GGGUACAUCGGAGGAUAUCAUGUAAAUACAUGAGGAUCACCCAUGUCGAUGGAGACAGCGGAGAUUGAGAAGGCCGAUGUACCG", "apparent Kd", "105 nM"),
    ("CGAGCUGCCAGAGGAUAAUGGACAUGAGGAUCACCCAUGUGUCAGGAUAUGGGUUUCACAUGGACUCAGAAGGGACCAGCCCGA", "apparent Kd", "107 nM"),
    ("AACUAACAUGAGGAUCACCCAUGUUGCAGCGGUUGAGGAUAUGUGGGUGAAAAUAGCAUGGCAGAAGGCGAGUGUA", "apparent Kd", "120 nM"),
    ("AUGAUUAUACAAGGAUAUCAAUUGUAUACAAGUCUUACAUGAGGAUCACCCAUGUUAAAUUUUUUUGAGAAGGUGUGUUGUCAG", "apparent Kd", "35.6 nM"),
    ("CGUAGGAUCCAGAAGGCAUGAACAUGAGGAUCACCCAUGUGAAAAGACAUGAGGAUAUGGAUCCUACGAAAAGUGCGAAAGCAC", "apparent Kd", "5.53 nM"),
    ("GAGUAGUUGAAAGGAUAUUGAUUAUUGUAGGAUCAAGAAGGUUCUAACAUGAGGAUCACCCAUGUAGGACUAUUCCUGUGUAUC", "apparent Kd", "13 nM"),
    ("UCUCGUUUCGCAGGAUAUGCUGGUCGGAAAUAAACCGGCCACAUGAGGAUCACCCAUGUGCCACAGCAGAAGGGUGACACUAGA", "apparent Kd", "527 nM"),
]

The recorded apparent Kd with MS2 coat protein for `UUACUCAUGUAAGGAUAUGCAGCCGUUUCGGCUGCAGAAGGUACUAUAAUACAUGAGGAUCACCCAUGUCUCUAUUAUUUAGUG` was 52.8 nM

Entry `AUUAAACAUGAGGAUCACCCAUGUCAACAAAGUCGAGGAUAUGGGCAAUUAAAAUAAGAACCAGAAGGCGAAUAAU` , tested on MS2 coat protein, has a reported apparent Kd of 340 nM

I looked up `UAUUAAUACAUAUACAUGAGGAUCACCCAUGUCAAAAGACAUGAGGAUAUGGAUCCUAAUUGGAUCCAGAAGGCAUGAAUAAUU` and its apparent Kd for MS2 coat protein was 347 nM

Form field, apparent Kd with MS2 coat protein, item `CUGUUGGGCUCAGGAUAUCGGGUUUAACAUGAGGAUCACCCAUGUCGUCUGCGAAAGCAGAAUCACGAGAAGGGAGACCAGCGA` : 13.3 nM

Log: MS2 coat protein, sequence `GGAGACCUCACAGGAUAUGCUGGACUUUGUCCAGCAGAAGGGUGAAAACAUGAGGAUCACCCAUGUAUGGUCUCCAAAUUUAAA` , apparent Kd = 200 nM

`AAGAAACAUGAGGAUCACCCAUGUAAUAAUAUGGGAGGAUAUACAAGGACAAUAGUCAAGGUAGAAGGCCUAAGAA` on MS2 coat protein gives apparent Kd = 175 nM

# value of apparent Kd, MS2 coat protein, item `CGCGAAAACAUAGGAUAUUGUUACAUGAGGAUCACCCAUGUCAACCAUUUAUCUCAAAUUGUUGACAAGAAGGAUGAGGUCGCG` = 113 nM

The value of apparent Kd recorded for `CUCUUACAUGAGGAUCACCCAUGUGUUGUCGUGGGAGGAUAUCCUGGUUCGGUGGCGUUGGGAGAAGGCCUAUGUC` when tested on MS2 coat protein reads 722 nM

apparent Kd value, target or system MS2 coat protein, for `GUUGACAGCACAGGAUAUGCGCAGUCUAUAUCACAUGAGGAUCACCCAUGUCGGCAACAGACCGAGCAGAAGGGUGCGAGUGUG` : 235 nM

Form: item `GUGGUCAGACAUGAGGAUCACCCAUGUGGAAUAAAUAACGGACAGGAUAUAGAAUAUAGGAUAUACUAGAAGGGUUGAUUGGUG` ; test system MS2 coat protein; apparent Kd: 55.7 nM

Record `GGAGCACAUCAAUACAUGAGGAUCACCCAUGUCGAAUGAUAUGAGGAUAUGCAUCGGAAAACGAUGUAGAAGGCAUAGUGCUCC` / MS2 coat protein, apparent Kd recorded as 15.6 nM

Measured apparent Kd for this entry `GUCGGAAACGACAAAAGUAUGGAUCCAGAAGGCAUGACACAUGAGGAUCACCCAUGUCUAAGACAUGAGGAUAUGGAUCCAUAC` on MS2 coat protein: 5.24 nM

With MS2 coat protein as the test system, `UUACUCAUGUAAGGAUAUGUAGCCGUUUCGGCUGCAGAAGGUACUAUAAUACAUGAGGAUCACCCAUGUCUUUUUAAUUUAGAC` showed apparent Kd of 69.3 nM

Readout apparent Kd for `AGUAUACAUGAGGAUCACCCAUGUCUGUAACGGACAGGAUAUGCGUUGCAUCACUGUAAUGCAGAAGGGUCCUGUA` , test system MS2 coat protein, was 296 nM

MS2 coat protein assay, sequence `CGCGGACAAGAGAAGGCCAGACCUCGGAACCUGAGGCACCGCUAGGCAUGGAGGAUAUCUUGACAUGAGGAUCACCCAUGUACU` , recorded apparent Kd = 665 nM

Form: item `AAUCACAUGAGGAUCACCCAUGUGCCAGAAGGCACAAAUCUGCCUGGUGCGCCCGGGCUUCUCUGUGAGGAUAUGGAAAAGAAG` ; test system MS2 coat protein; apparent Kd: 309 nM

Query `CUCAAACAUGAGGAUCACCCAUGUGUUGUCAUGGGAGGAUAUCUAAGUUCGUUGUAGUCGGGAGAAGGCCUAUGUC` on MS2 coat protein; apparent Kd returned: 134 nM

Summary line: `GGGUCCAACACAGGAUAUGCUGGACUUUGUCCAGCAGAAGGGUGAAGAACAUGAGGAUCACCCAUGUGGAUCCAUAUAUUUAAU` , MS2 coat protein, reported apparent Kd = 236 nM

src = the EternaBench riboswitch data
